# if value of melting point reaches 100 °C, tag TRUE; if it stays below, tag FALSE

Some solved cases for reference:
compound=CCc1ccc([N+](=O)[O-])cc1 label=FALSE
compound=O=C1CN=C(c2ccccc2)c2cc(Cl)ccc2N1CC1CC1 label=TRUE
compound=O=[N+]([O-])c1ccccc1/C=C/c1ccccc1 label=FALSE
compound=CCCC=CC(C)C label=FALSE
compound=CCC(C)(C)c1ccc(O)c(C(C)(C)CC)c1 label=FALSE

# next compound below
Assess whether reported melting point for CC(O)CN(C)C (centres undefined) sits at 100 °C or higher.
TRUE

----------
Quantity: melting point (°C)
Please reply with the bare figure in °C and do not write the unit itself.

# annotated cases, reported melting point shown
compound=O=[N+]([O-])c1ccc2c3c(cccc13)CC2 scale_unit=°C numeric_readout=100
compound=C#CCC1(OC(N)=O)CCCCC1 scale_unit=°C numeric_readout=99
compound=Oc1cc(O)cc(O)c1 scale_unit=°C numeric_readout=218

Name the recorded melting point for CCOC(=O)C1=C(C)NC(C)=C(C(=O)OCC)C1 .
180

Reported melting point, compound FC(F)(F)C(F)(F)C(F)(F)N(C(F)(F)C(F)(F)C(F)(F)F)C(F)(F)C(F)(F)C(F)(F)F : ____
-52

# get_value(readout='melting point', item= CCCCCCCCCCCCCO )
32.5

----------
Quantity: log10 Henry constant (atm·m³/mol)
// no unit string in output, number only

Worked examples, 5 molecules total:
molecule=Clc1ccc(Cl)c(-c2cccc(Cl)c2Cl)c1 numeric_readout=-3.85
molecule=c1ccc2c(c1)[nH]c1ccccc12 numeric_readout=-6.94
molecule=CCCCCC(C)=O numeric_readout=-3.77
molecule=CCCCCCOC(C)=O numeric_readout=-3.28
molecule=BrCCCBr numeric_readout=-3.05

Endpoint output: log10 Henry constant (atm·m³/mol) of CC(C)(C)C(=O)O . Value?
-5.56

Give its log10 Henry constant (atm·m³/mol) value. Item: Clc1ccc(-c2cc(Cl)ccc2Cl)c(Cl)c1
-3.68

----------
Please enter TRUE where log10 vapour pressure (mmHg) is greater than or equal to 0.08, and FALSE where it is lower.

Below, 5 molecules whose answers are already recorded.
molecule=CCCCCC(C)C label=TRUE
molecule=N#CCCC#N label=FALSE
molecule=CCOC(=O)CC(=O)OCC label=FALSE
molecule=C[Si](Cl)(Cl)c1ccccc1 label=FALSE
molecule="CCCC(C)Cl (stereo not given)" label=TRUE

Entry FC1(F)C(F)(F)C(F)(F)C(F)(F)C(F)(F)C1(F)F : is its log10 vapour pressure (mmHg) no less than 0.08?
TRUE

Is it the case that O=P(Oc1ccccc1)(Oc1ccccc1)Oc1ccccc1 has log10 vapour pressure (mmHg) reaching or exceeding 0.08?
FALSE

Hi, just wondering whether CC1=CC(=O)CC(C)(C)C1 shows log10 vapour pressure (mmHg) of 0.08 or higher.
FALSE

Could you tell me if the measured log10 vapour pressure (mmHg) of CCOP(=S)(OCC)Oc1cnc2ccccc2n1 reaches 0.08 or more?
FALSE

----------
API: label(entry) gives met if the entry's log10 vapour pressure (mmHg) is strictly smaller than -4; on equality or larger values it gives not met.

Answered examples (3):
compound=Clc1ccc(-c2ccc(Cl)c(Cl)c2)c(Cl)c1 label=met
compound=Cc1ccccc1C(=O)Nc1cccc(OC(C)C)c1 label=met
compound=CC(C)(COCc1cccc(Oc2ccccc2)c1)c1ccc(OC(F)(F)Br)cc1 label=met

Could you now look at the following compound, please?
A record lists CCCCN(CCCC)N=O . Is its log10 vapour pressure (mmHg) below -4?
not met

----------
I would appreciate it if you labelled entries fulfilled when log10 Henry constant (atm·m³/mol) is -4 or higher, otherwise not fulfilled.

molecule=C=C(C)C label=fulfilled
molecule=C=C(C)C(=O)O label="not fulfilled"
molecule=Cc1cc(C)cc(O)c1 label="not fulfilled"
molecule=Cc1cnccn1 label="not fulfilled"
molecule=Clc1cc(Cl)c2c(c1Cl)Oc1ccccc1O2 label="not fulfilled"
molecule="CC1=CCC(C(C)(C)O)CC1 (stereo not given)" label="not fulfilled"

Identify whether the reported log10 Henry constant (atm·m³/mol) of the following molecule is -4 or greater: CI
fulfilled

Does the reported log10 Henry constant (atm·m³/mol) for Clc1cc(Cl)c(-c2ccccc2)c(Cl)c1Cl fall at or above the -4 mark?
fulfilled

Is it the case that CC(=O)C(=O)O has log10 Henry constant (atm·m³/mol) reaching or exceeding -4?
not fulfilled

Answer whether log10 Henry constant (atm·m³/mol) of C1CCCNCC1 is greater than or equal to -4.
not fulfilled

For this molecule, is measured log10 Henry constant (atm·m³/mol) -4 or higher? FC(F)(Cl)Cl
fulfilled

----------
settings: fish
Rule: measured log10 biotransformation half-life (days) below 0.1 gets Condition met; anything equal to or greater than 0.1 gets Condition not met.

smiles_entry=C[Si]1(C)O[Si](C)(C)O[Si](C)(C)O[Si](C)(C)O[Si](C)(C)O[Si](C)(C)O1 label="Condition not met"
smiles_entry=CCc1cc2ccccc2c2ccccc12 label="Condition not met"
smiles_entry=Brc1cccc(Br)c1 label="Condition not met"
smiles_entry=Oc1ccc(-c2ccccc2)cc1 label="Condition met"
smiles_entry=O=[N+]([O-])c1cc(S(=O)(=O)Nc2ccccc2)ccc1Nc1ccccc1 label="Condition met"
smiles_entry=Clc1ccc(-c2cc(Cl)c(Cl)c(Cl)c2Cl)cc1 label="Condition not met"

Given the entry ClCCOC(c1ccccc1)c1ccccc1 , would its reported log10 biotransformation half-life (days) be below 0.1?
Condition met

Report whether reported log10 biotransformation half-life (days) is lower than 0.1 (strictly) for Brc1cc(Br)cc(Br)c1
Condition not met

Find out if reported log10 biotransformation half-life (days) for Brc1cc(Br)c(Oc2cc(Br)c(Br)cc2Br)c(Br)c1 is less than 0.1
Condition not met

I'd appreciate it if you could check whether C[Si]1(C)O[Si](C)(C)O[Si](C)(C)O[Si](C)(C)O[Si](C)(C)O1 has log10 biotransformation half-life (days) smaller than 0.1.
Condition not met

State whether 0.1 exceeds log10 biotransformation half-life (days) recorded for ClCBr .
Condition met

Does the reported log10 biotransformation half-life (days) of the following molecule sit strictly below 0.1? C=C(C)c1ccc(Cl)cc1
Condition not met

----------
settings: fish
Binary call on log10 biotransformation half-life (days): label 1 from 0.4 upward, label 0 beneath that.

Here's what some known entries look like.
molecule=Clc1cc(-c2c(Cl)c(Cl)c(Cl)c(Cl)c2Cl)cc(Cl)c1Cl label="label 1"
molecule="CC1CCC(C(C)C)C(O)C1 (centres undefined)" label="label 0"
molecule=c1cc2c3c(ccc4c3c1CCC4)CCC2 label="label 1"

Say whether OCc1c(Cl)cccc1Cl shows log10 biotransformation half-life (days) of 0.4 or more.
label 0

Identify whether the reported log10 biotransformation half-life (days) of the following molecule is 0.4 or greater: Clc1cc2c(cc1Cl)Oc1ccccc1O2
label 0

Check the entry BrCC(CBr)(CBr)CBr : does log10 biotransformation half-life (days) equal or exceed 0.4?
label 1

Decide: is the reported value of log10 biotransformation half-life (days) for Clc1ccc(-c2cc(Cl)c(Cl)c(Cl)c2)cc1Cl equal to or greater than 0.4?
label 1

Form field: log10 biotransformation half-life (days) at least 0.4? Entry: CCCCCc1ccc2c(c1)C(=O)c1ccccc1C2=O
label 0

Confirm if log10 biotransformation half-life (days) reported for the molecule O=C1c2ccccc2C(=O)c2cc(Cl)ccc21 is 0.4 or above.
label 0

Threshold query (log10 biotransformation half-life (days) >= 0.4) on c1ccc(Nc2ccccc2)cc1
label 0

# check: log10 biotransformation half-life (days) of Oc1ccc(Cl)cc1Cl is greater than or equal to 0.4
label 0

----------
Quantity: melting point (°C)
Note: unit °C is implicit; provide only the numeric part.

compound=CC(=O)Oc1c[nH]c2ccccc12 quantity="melting point" numeric_readout=129
compound=Nc1ccc(C(=O)O)c(N)c1 quantity="melting point" numeric_readout=140
compound=C=CCC(=O)O quantity="melting point" numeric_readout=-35

Looking for the measured melting point of COc1ccc2c(c1OC)CN(C)CCc1cc3c(cc1C(=O)C2)OCO3 , can you help?
160

Quick one: melting point for O=C=NS(=O)(=O)Cl ?
-44

If you can, please state the reported melting point value of BrC/C=C/CBr .
53.4

Form field: reported melting point of CC[N+](C)(C)C(C)CC(c1ccccc1)c1ccccc1.[Br-] (stereo unspecified)
204

Please report the recorded melting point for c1ccc(CN(Cc2ccccc2)Cc2ccccc2)cc1 .
91.5

----------
Quantity: log10 Koc (L/kg)
Lab note: jot the number down without any unit.

What value of measured log10 Koc (L/kg) is listed for CCCCC(C#N)(Cn1cncn1)c1ccc(Cl)cc1 (stereo unspecified) ?
2.7

----------
# key: entry, value: log10 Koc (L/kg)
Number only, please.

Look over these answered cases.
compound="ClC=CCCl (mixture of isomers)" numeric_readout=1.67
compound=c1ccc2c(c1)oc1ccccc12 numeric_readout=3.91
compound=COc1nc(NC(C)C)nc(NC(C)C)n1 numeric_readout=2.6

Returns the measured log10 Koc (L/kg) for the input compound. Input: COC(=O)c1ccc(C(F)(F)F)nc1S(=O)(=O)[N]([Na])C(=O)Nc1nc(OC)cc(OC)n1
1.46

# input compound: CCc1cnc(C2=NC(C)(C(C)C)C(=O)N2)c(C(=O)O)c1 (stereo unspecified) ; wanted: its log10 Koc (L/kg)
0.85

Which measured log10 Koc (L/kg) value corresponds to CCOP(=O)(NC(C)C)Oc1ccc(SC)c(C)c1 (stereo unspecified) ?
2.51
